This listing pairs compounds with measured Dose.FC.CTG.
# System: ISC-enriched organoids
# test: Primary screen, 384-well 2.5-D organoid differentiation (ENR+CD, 6 days, Target Selective Inhibitor Library, vs whole-plate median): ATP (CellTiter-Glo 3D, CTG)
# recorded conditions: Dose 2.00 uM; primary screen, FC vs plate median
Quick reminder: number only, in log 2 fold change, skip the unit.

Example entries and their recorded answers appear below.
1. CCCCCCCCCCCCCCCCn1cc[n+](Cc2ccccc2)c1C.[I-] [NH125]: −1.106
2. COc1ccc(CNCc2cccc3ccccc23)cc1.Cl [ML133 HCl]: −0.247
3. NC(=O)c1cccc(-c2cc(Nc3ccc(OC(F)(F)F)cc3)ncn2)c1 [GNF-2]: 0.074

Ask: Output Dose.FC.CTG of Cl.O=C(O)Cc1cccc(OCCCN(Cc2cccc(C(F)(F)F)c2Cl)CC(c2ccccc2)c2ccccc2)c1 [GW3965 HCl]
Result: 0.229

Ask: Identify Dose.FC.CTG associated with the compound CC(C)(F)C[C@H](N[C@@H](c1ccc(-c2ccc(S(C)(=O)=O)cc2)cc1)C(F)(F)F)C(=O)NC1(C#N)CC1 [Odanacatib (MK-0822)]
Result: −0.008

Ask: Please list Dose.FC.CTG recorded for the compound Cc1ccc(C(=O)N(CCCN)[C@@H](c2nc3cc(Cl)ccc3c(=O)n2Cc2ccccc2)C(C)C)cc1 [Ispinesib (SB-715992)]
Result: −0.511

Ask: // fetch Dose.FC.CTG given entry CCc1c(C(=O)NCCc2ccc(N3CCCCC3)cc2)[nH]c2ccc(Cl)cc12 [Org 27569]
Result: 0.362

Ask: Please give the documented Dose.FC.CTG of O=C(Nc1ccccc1)N1CCN(c2nc(-c3ccccc3)ns2)CC1 [JNJ-1661010]
Result: −0.055

Ask: Indicate its recorded Dose.FC.CTG; the compound in question is CC(C)CCNC(=O)[C@H](CC(C)C)NC(=O)[C@H]1O[C@@H]1C(=O)O [Loxistatin Acid (E-64C)]
Result: 0.080

Ask: Give a short answer stating reported Dose.FC.CTG for C[C@@H](Oc1cc(-n2cnc3ccc(CN4CCN(C)CC4)cc32)sc1C(N)=O)c1ccccc1C(F)(F)F [GSK461364] .
Result: −0.628

Ask: Note Dose.FC.CTG for the compound shown: O=C(NNc1ccccc1)c1ccncc1 [PluriSIn #1 (NSC 14613)]
Result: −0.433
